Consider the following binders and their measured IC50 (read off the curve) readings.
Target: T1, CD47 on the surface of CHO-K1-E5 cells (human, UniProt Q08722 19-323)
T1 construct: Full length CD47 expressed from pTargeT-CD47 in CHO-K1 cells; also called CD47 on cell surface; CHO-K1-hCD47
Assay: FACS blocking assay on CHO-K1-E5 cells; blocked ligand SIRPα-Biotin, PE streptavidin

Before answering, review these 2 worked examples.
1) Hu58A-14-PE (antibody, IgG4, V domains shown, also called humanized anti-CD47 antibody Hu58A-14-PE) VH: EVQLLESGGGLVQPGGSLRLSCAASGFIFSRFGMAWVRQTPDKRLEWVATISSGGSYTYYPDSVKGRLTISRDNAKTTLYLQMRSLKSEDTAMYYCARQGLLDYLYALDYWGQGTAVTVSS VL: DIQMTQSPSSVSASIGDRVTITCKASQDINSFLAWFQQKPGKSPRPLIYRAYRLVDGVPSRFSGVGSGQDYSLTISSLDYEDLGIYYCQQYVEFPPTFGAGTMLELK : ~5 nM
2) AB6.12-IgG4P (antibody, V domains shown, Anti-CD47 control antibody from WO2013/119714; also called AB06.12-4P; AB06.12-P) VH: QMQLVQSGAEVKKTGSSVKVSCKASGFNIKDYYLHWVRQAPGQALEWMGWIDPDQGDTEYAQKFQDRVTITRDRSMSTAYMELSSLRSEDTAMYYCNAAYGSSSYPMDYWGQGTTVTVSS VL: NIQMTQSPSAMSASVGDRVTITCKASQDIHRYLSWFQQKPGKVPKHLIYRANRLVSGVPSRFSGSGSGTEFTLTISSLQPEDFATYYCLQYDEFPYTFGGGTKVEIKR : ~1 nM

Would you kindly look at the next entry?
QUERY: Entry under review: Hu26T-31-PE (antibody, IgG4, V domains shown, also called humanized anti-CD47 antibody Hu26T-31-PE) VH: QVQLVQSGAEVKKPGASVKVSCKASGYTFTDYYMNWVRQAPGQGLEWIGRIYPGSGLTYYNAKFKGRATVTADKSTSTVYMELSSLRSEDTAVYYCARTSYGSSFPHVWGQGTTVTVSS VL: DIQMTQSPSSLSASVGDRVTITCKSSQSLLNVNDQKNYLAWYQQKPGKAPKLLIYFASTRESGVPSRFSGSGSGTDFTLTISSLQPEDFATYYCQQHYSTPLTFGQGTKLEIK . Reported IC50 (read off the curve)?
RESULT: ~1 nM

These data points were gathered from patent US20230090014A1.
